biological target: UniProt P32245
Sequence (P32245 whole entry): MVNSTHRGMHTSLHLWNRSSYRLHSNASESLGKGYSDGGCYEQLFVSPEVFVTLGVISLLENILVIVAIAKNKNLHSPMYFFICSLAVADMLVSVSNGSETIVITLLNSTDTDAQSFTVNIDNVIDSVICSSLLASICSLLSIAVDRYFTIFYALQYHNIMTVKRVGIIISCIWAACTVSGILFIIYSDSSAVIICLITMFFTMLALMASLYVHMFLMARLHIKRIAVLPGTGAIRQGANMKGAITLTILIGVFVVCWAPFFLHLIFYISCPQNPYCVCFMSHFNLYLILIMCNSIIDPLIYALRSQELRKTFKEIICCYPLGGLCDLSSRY
For each record, write down the corresponding AC50.

In: Name the recorded AC50 of CC(=O)OCC(=O)[C@@]1(O)[C@H](C)C[C@H]2[C@@H]3CCC4=CC(=O)C=C[C@]4(C)[C@@]3(F)[C@@H](O)C[C@@]21C [DEXAMETHASONE ACETATE] , assay system UniProt P32245.
Out: > 30 µM

In: Name the recorded AC50 of C/C(=C\C(=O)OCCCCCCCCC(=O)O)C[C@@H]1OC[C@H](C[C@@H]2O[C@H]2[C@@H](C)[C@H](C)O)[C@@H](O)[C@H]1O [MUPIROCIN] , assay system UniProt P32245.
Out: > 10 µM

In: Name the recorded AC50 of C=CC[C@@H]1/C=C(\C)C[C@H](C)C[C@H](OC)[C@H]2O[C@@](O)(C(=O)C(=O)N3CCCC[C@H]3C(=O)O[C@H](/C(C)=C/[C@@H]3CC[C@@H](O)[C@H](OC)C3)[C@H](C)[C@@H](O)CC1=O)[C@H](C)C[C@@H]2OC [TACROLIMUS ANHYDROUS] , assay system UniProt P32245.
Out: > 30 µM

In: Name the recorded AC50 of C[C@@H](Oc1cc(-c2cnn(C3CCNCC3)c2)cnc1N)c1c(Cl)ccc(F)c1Cl [CRIZOTINIB] , assay system UniProt P32245.
Out: 19.8 µM

In: Name the recorded AC50 of CCCN(CCC)C(=O)Cc1c(-c2ccc(Cl)cc2)nc2ccc(Cl)cn12 [ALPIDEM] , assay system UniProt P32245.
Out: > 30 µM

In: Name the recorded AC50 of CC(C)Cc1ccc(C(C)C(=O)O)cc1 (configuration not stated) [IBUPROFEN] , assay system UniProt P32245.
Out: > 30 µM

In: Name the recorded AC50 of Nc1cc(-c2ccncc2)c[nH]c1=O [INAMRINONE] , assay system UniProt P32245.
Out: > 30 µM

---

For each record, write down the corresponding AC50.
target: UniProtKB P25021; type: functional, cell-based
Sequence (P25021 whole entry): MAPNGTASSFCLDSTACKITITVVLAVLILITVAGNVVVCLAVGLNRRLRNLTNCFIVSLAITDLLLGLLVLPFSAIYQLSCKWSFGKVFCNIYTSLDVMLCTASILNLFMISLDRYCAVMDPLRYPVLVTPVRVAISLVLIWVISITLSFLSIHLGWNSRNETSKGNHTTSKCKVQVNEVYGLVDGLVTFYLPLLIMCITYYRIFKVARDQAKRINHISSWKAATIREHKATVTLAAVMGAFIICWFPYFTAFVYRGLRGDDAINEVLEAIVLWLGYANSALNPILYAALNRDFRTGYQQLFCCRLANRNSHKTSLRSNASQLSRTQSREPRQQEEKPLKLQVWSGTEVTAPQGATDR

In: Report AC50 for C=CC[C@@H]1/C=C(\C)C[C@H](C)C[C@H](OC)[C@H]2O[C@@](O)(C(=O)C(=O)N3CCCC[C@H]3C(=O)O[C@H](/C(C)=C/[C@@H]3CC[C@@H](O)[C@H](OC)C3)[C@H](C)[C@@H](O)CC1=O)[C@H](C)C[C@@H]2OC [TACROLIMUS ANHYDROUS]
Out: > 10 µM

In: Report AC50 for "C[C@@H](NCCCc1cccc(C(F)(F)F)c1)c1cccc2ccccc12"
Out: > 30 µM

In: Report AC50 for COc1cc2c(cc1OC)C(CCc1ccc(Cl)cc1)N(C)CC2 (configuration not stated)
Out: > 10 µM

In: Report AC50 for "CC1(C)S[C@@H]2[C@H](NC(=O)[C@H](N)c3ccccc3)C(=O)N2[C@H]1C(=O)OCOC(=O)[C@@H]1N2C(=O)C[C@H]2S(=O)(=O)C1(C)C"
Out: > 30 µM

In: Report AC50 for "CC(C)c1nc(N(C)S(C)(=O)=O)nc(-c2ccc(F)cc2)c1/C=C/[C@@H](O)C[C@@H](O)CC(=O)O"
Out: > 30 µM

In: Report AC50 for "C=CCNc1nc(NCC=C)nc(N2CCN(C(c3ccc(F)cc3)c3ccc(F)cc3)CC2)n1"
Out: > 30 µM

In: Report AC50 for CCCC(CCC)C(N)=O [VALPROMIDE]
Out: > 10 µM

In: Report AC50 for "CC(=O)O[C@H](CC(=O)[O-])C[N+](C)(C)C"
Out: > 30 µM

In: Report AC50 for "CN(C)CC[C@@H](c1ccc(Cl)cc1)c1ccccn1"
Out: > 30 µM

In: Report AC50 for CCC(C)C(CC)C(N)=O (configuration not stated) [VALNOCTAMIDE]
Out: > 30 µM

In: Report AC50 for "CCCCC1C(=O)N(c2ccccc2)N(c2ccccc2)C1=O"
Out: > 10 µM

In: Report AC50 for "Oc1ccc2c(c1)[C@@]13CCCC[C@@]1(O)[C@@H](C2)N(CC1CCC1)CC3"
Out: > 30 µM

In: Report AC50 for "CN(C)CCc1c[nH]c2ccc(Cn3cncn3)cc12"
Out: > 30 µM

In: Report AC50 for Clc1ccc(C(Cn2ccnc2)OCc2ccsc2Cl)c(Cl)c1 (configuration not stated)
Out: > 30 µM

In: Report AC50 for CC(C)COCC(CN(Cc1ccccc1)c1ccccc1)N1CCCC1 (configuration not stated)
Out: > 30 µM

In: Report AC50 for C#CCOc1ccc(N)cc1C(=O)NCCCC [PARSALMIDE]
Out: > 30 µM

In: Report AC50 for OCc1cc(C(O)CNCCCCCCOCCCCc2ccccc2)ccc1O (configuration not stated)
Out: > 10 µM
